Biological target: Mot3 (UniProt P54785)
Sequence: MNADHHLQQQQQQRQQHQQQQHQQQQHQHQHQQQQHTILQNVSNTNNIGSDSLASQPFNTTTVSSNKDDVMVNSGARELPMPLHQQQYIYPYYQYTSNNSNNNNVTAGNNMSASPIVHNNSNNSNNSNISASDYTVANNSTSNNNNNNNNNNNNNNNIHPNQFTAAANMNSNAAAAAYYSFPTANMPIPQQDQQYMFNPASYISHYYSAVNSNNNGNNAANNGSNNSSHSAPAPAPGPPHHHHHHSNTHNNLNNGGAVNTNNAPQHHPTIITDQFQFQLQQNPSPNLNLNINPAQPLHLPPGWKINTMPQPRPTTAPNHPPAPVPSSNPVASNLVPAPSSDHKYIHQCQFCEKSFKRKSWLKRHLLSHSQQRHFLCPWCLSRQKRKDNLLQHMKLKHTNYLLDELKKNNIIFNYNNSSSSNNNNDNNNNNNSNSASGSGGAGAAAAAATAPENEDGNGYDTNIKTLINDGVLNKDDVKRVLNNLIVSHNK
Experiment: PBM E-score (8-mer binding enrichment) (E-score (-0.5 to 0.5)); higher = stronger / more preferred TF binding
Conditions: protein concentration: 200 nM; construct: GST-full length
In all, about 33,000 sequences were measured (“E-score (-0.5 to 0.5)”: median about -0.035, highest 2% from about 0.34 on). Many of the other results were omitted from the sample, so the highest values are more common in it than they were.
measure.name: PBM E-score

>  <query.sequence>
GCTAACTA

>  <PBM E-score>
0.00452

$$$$
>  <query.sequence>
GAGTTAAC

>  <PBM E-score>
0.0651

$$$$
>  <query.sequence>
TAGTTCCA

>  <PBM E-score>
0.00515

$$$$

Let us examine a further case.
Give the measured PBM E-score of CGGGAAAC .
-0.0422

----------
Target: Mot3 (UniProt P54785)
Sequence: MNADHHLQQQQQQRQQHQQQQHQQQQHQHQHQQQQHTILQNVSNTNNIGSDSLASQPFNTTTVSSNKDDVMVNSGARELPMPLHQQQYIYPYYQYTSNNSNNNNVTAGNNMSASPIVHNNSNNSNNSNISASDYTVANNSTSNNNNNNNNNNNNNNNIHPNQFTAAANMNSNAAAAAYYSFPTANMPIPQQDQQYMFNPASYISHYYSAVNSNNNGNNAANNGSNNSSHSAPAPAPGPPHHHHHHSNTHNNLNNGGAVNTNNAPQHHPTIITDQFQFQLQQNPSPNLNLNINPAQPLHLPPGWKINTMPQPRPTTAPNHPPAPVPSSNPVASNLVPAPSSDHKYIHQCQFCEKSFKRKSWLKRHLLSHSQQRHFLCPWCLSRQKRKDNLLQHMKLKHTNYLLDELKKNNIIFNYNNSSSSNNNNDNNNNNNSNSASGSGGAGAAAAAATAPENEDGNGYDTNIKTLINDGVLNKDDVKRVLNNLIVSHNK
Experiment: PBM E-score (8-mer binding enrichment) (E-score (-0.5 to 0.5)); higher = stronger / more preferred TF binding
Details: protein concentration: 200 nM; construct: GST-full length
Whole data set: some 33,000 sequences, median “E-score (-0.5 to 0.5)” near -0.035, cut for the highest 2% near 0.34. The entries come from a sample that favours the highest values as a whole.
Quick rule for you: PBM E-score at 0.06 or higher means true (1), lower means false (0).

These recorded examples may help you get a feel for the data.
>  <query.sequence>
AACCCACA

>  <label>
true (1)

$$$$
>  <query.sequence>
CAAGGCCG

>  <label>
false (0)

$$$$
>  <query.sequence>
ATCTTGGG

>  <label>
false (0)

$$$$
>  <query.sequence>
GTGTTGTA

>  <label>
true (1)

$$$$
>  <query.sequence>
AAGTTCAT

>  <label>
false (0)

$$$$
>  <query.sequence>
CAAGGCAA

>  <label>
true (1)

$$$$
>  <query.sequence>
AGTGTCTA

>  <label>
false (0)

$$$$
>  <query.sequence>
AAAACATG

>  <label>
true (1)

$$$$
>  <query.sequence>
TAAACCTA

>  <label>
false (0)

$$$$
>  <query.sequence>
AAAGGCCT

>  <label>
false (0)

$$$$

Is PBM E-score for GATGTGTA at or above 0.06?
true (1)

What do you get for ACTGTTGG ?
false (0)

What do you get for TAAGGCAA ?
true (1)

What do you get for AAAGTGTC ?
false (0)

What do you get for AAAACATT ?
true (1)

What do you get for AAAGGCTT ?
false (0)

----------
Molecular target: Mot3 (UniProt P54785)
Sequence: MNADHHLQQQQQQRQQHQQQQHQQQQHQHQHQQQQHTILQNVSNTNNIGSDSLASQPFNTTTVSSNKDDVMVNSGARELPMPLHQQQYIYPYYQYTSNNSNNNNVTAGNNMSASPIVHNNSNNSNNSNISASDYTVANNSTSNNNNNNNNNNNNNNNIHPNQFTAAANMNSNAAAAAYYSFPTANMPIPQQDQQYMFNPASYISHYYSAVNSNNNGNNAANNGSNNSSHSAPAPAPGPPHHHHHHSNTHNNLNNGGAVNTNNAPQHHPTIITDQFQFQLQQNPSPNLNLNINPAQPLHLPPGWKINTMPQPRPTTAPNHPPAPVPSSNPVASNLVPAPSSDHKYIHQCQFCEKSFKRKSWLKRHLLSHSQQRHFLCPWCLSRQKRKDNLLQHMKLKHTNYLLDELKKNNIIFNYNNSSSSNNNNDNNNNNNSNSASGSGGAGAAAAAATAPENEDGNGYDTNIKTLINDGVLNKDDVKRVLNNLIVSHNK
Assay: PBM E-score (8-mer binding enrichment) (E-score (-0.5 to 0.5)); higher = stronger / more preferred TF binding
Conditions: protein concentration: 200 nM; construct: GST-full length
Whole data set: some 33,000 sequences, median “E-score (-0.5 to 0.5)” near -0.035, cut for the highest 2% near 0.34. The list comes from a sample in which the highest values are over-represented; it also holds close analogues and randomly drawn sequences.
Label scheme, based on PBM E-score: band 1 (below 0.09), band 2 (0.09 to below 0.3), band 3 (0.3 or more)

These recorded examples may help you get a feel for the data.
>  <query.sequence>
GCCTACAC

>  <label>
band 3

$$$$
>  <query.sequence>
CCCAGGAG

>  <label>
band 1

$$$$
>  <query.sequence>
TACATAGA

>  <label>
band 3

$$$$
>  <query.sequence>
CGTTTACA

>  <label>
band 3

$$$$

Note: place this sequence into its band. Item: GACCTGCA
band 1

What do you get for AACCTGCA ?
band 1

What do you get for CGTGCTAG ?
band 1

What do you get for CCCACTGC ?
band 1

What do you get for TACCTGCA ?
band 3

What do you get for ATCTACAC ?
band 3

What do you get for TACCTTCA ?
band 3

What do you get for AAGCAAGA ?
band 1

What do you get for GACCTTCA ?
band 1

What do you get for AGTTTACA ?
band 3

----------
Biological target: Mot3 (UniProt P54785)
Sequence: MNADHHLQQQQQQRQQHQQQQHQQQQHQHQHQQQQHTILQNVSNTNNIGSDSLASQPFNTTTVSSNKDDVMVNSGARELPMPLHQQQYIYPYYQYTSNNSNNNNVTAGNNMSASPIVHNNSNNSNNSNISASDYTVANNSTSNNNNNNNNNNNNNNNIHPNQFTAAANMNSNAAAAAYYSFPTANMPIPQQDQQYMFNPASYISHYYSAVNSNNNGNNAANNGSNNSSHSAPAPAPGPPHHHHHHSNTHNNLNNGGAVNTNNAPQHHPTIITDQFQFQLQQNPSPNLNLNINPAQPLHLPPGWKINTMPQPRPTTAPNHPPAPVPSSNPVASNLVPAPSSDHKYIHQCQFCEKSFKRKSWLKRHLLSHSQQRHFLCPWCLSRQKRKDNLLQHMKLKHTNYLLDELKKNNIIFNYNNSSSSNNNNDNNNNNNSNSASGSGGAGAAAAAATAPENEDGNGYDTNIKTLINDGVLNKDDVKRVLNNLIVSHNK
Experiment: PBM E-score (8-mer binding enrichment) (E-score (-0.5 to 0.5)); higher = stronger / more preferred TF binding
Details: protein concentration: 200 nM; construct: GST-full length
Whole data set: some 33,000 sequences, median “E-score (-0.5 to 0.5)” near -0.035, cut for the highest 2% near 0.34. For the sample, the highest values were picked, then their nearest neighbours and some sequences at random.
measure.name: PBM E-score

>  <query.sequence>
TACACAAA

>  <measure.name>
PBM E-score

>  <reported.result>
0.369

$$$$
>  <query.sequence>
CAACTGAG

>  <measure.name>
PBM E-score

>  <reported.result>
0.00667

$$$$
>  <query.sequence>
CGAATAAC

>  <measure.name>
PBM E-score

>  <reported.result>
0.0678

$$$$
>  <query.sequence>
CAATTACA

>  <measure.name>
PBM E-score

>  <reported.result>
0.378

$$$$
>  <query.sequence>
TAATTATA

>  <measure.name>
PBM E-score

>  <reported.result>
0.206

$$$$

Let us examine a further case.
Give the measured PBM E-score of TACACGAA .
0.359

From: the supplement of paper PMC3334620
